Test system: UO-31 renal
Assay: NCI-60 one-dose screen, 48 h
Conditions: 10 µM unless noted
The panel holds about 83,000 compounds, 20% with a hit somewhere; the sample as a whole holds those more often. Calls of active or inactive are those of the source. The calls were made as follows: active = growth percent below 10; inactive = the rest.
Labels: active, inactive

Substance smiles: CN1CCN(c2nc(-c3csc(-c4ccccc4)n3)cc3ccccc23)CC1
Discrete label: inactive
//
Substance smiles: CC(=O)Nc1cccc(Nc2nc(N[C@@H](C)c3ccccc3)c3ccccc3n2)c1
Discrete label: inactive
//
Substance smiles: CC(C)(C)c1ccc(C(=O)Nc2nc3ccc(O)cc3s2)cc1
Discrete label: inactive
//
Substance smiles: N/C(=N\C(N)=N\c1nc2ccccc2s1)c1ccncc1Cl
Discrete label: inactive
//
Substance smiles: Oc1cccc2ccc(-c3nnc(SCc4ccc(O)c5ncccc45)n3-c3ccccc3)nc12
Discrete label: active

====

System: SF-268 CNS
Experiment: NCI-60 one-dose screen, 48 h
Settings: 10 µM unless noted
This is part of a sample that, as a whole, favours compounds with a hit. Of some 83,000 tested, about 20% had one in any assay. The source made the active and inactive calls. How the source made its calls: active means growth percent below 10; inactive means the rest.
Labels: 1 (yes) for active, 0 (no) for inactive

Compound: CC(=O)N1C(=S)NC(=O)C1CC(C)C (centres undefined)
Discrete label: 0 (no)
//
Compound: CCOc1cccc(-c2nc3sccn3c2-c2ccnc(S(C)(=O)=O)n2)c1
Discrete label: 0 (no)
//
Compound: CN1CCN(Cc2ccc(NC(=O)c3cncc(C#Cc4cnc5ccc(OCC6(C)COC6)nn45)c3)cc2C(F)(F)F)CC1
Discrete label: 1 (yes)
//
Compound: COc1cc(-c2nn(C(C)(C)C)cc2-c2ccnc(NCCCNS(=O)(=O)c3ccc(Cl)cc3)n2)ccc1Cl
Discrete label: 0 (no)
//
Compound: COc1ccc(-c2nc3ccc(-c4nnc(SCC(=O)Nc5ccc(C(=O)/C=C/c6ccc(Cl)cc6)cc5)o4)cc3[nH]2)cc1
Discrete label: 0 (no)
//
Compound: O=C(Nc1ccc(N=Cc2c(O)[nH]c3ccccc23)cc1)Nc1nccs1
Discrete label: 0 (no)
//
Compound: CNC(=O)c1cc(Oc2ccc3nc(NC(=O)c4cc(N5CCOCC5)cc(C(F)(F)F)c4)sc3c2)ccn1
Discrete label: 0 (no)
//
Compound: O=S(=O)(NCCNc1nccc(-n2cnc3ccccc32)n1)c1ccc(C(F)(F)F)cc1
Discrete label: 0 (no)
//
Compound: COc1ccc(C2CC(c3ccc(Nc4nc(NCCO)nc(N5CCOCC5)n4)cc3)=Nc3c(N)nc(N)nc3N2)cc1 (centres undefined)
Discrete label: 0 (no)

====

Test system: LOX IMVI melanoma
Experiment: NCI-60 one-dose screen, 48 h (100 = growth as untreated, 0 = no growth, -100 = all killed)
Conditions: 10 µM unless noted
This is part of a sample that, as a whole, favours compounds with a hit. Of some 83,000 tested, about 20% had one in any assay.
The label Fulfilled is reserved for growth strictly under -30%; Not fulfilled covers values equal to or above it.

Substance smiles: NC(=O)c1c(NC(=O)c2ccc(F)cc2F)sc2c1CCC(=O)C2
Assayed system: LOX IMVI melanoma
Discrete label: Not fulfilled

Substance smiles: CCCCCc1ccc(S(=O)(=O)Nc2cccc(-c3csc(NC(=O)CCCCCN4CCN(CCO)CC4)n3)c2)cc1
Assayed system: LOX IMVI melanoma
Discrete label: Fulfilled

Substance smiles: C=CCn1c(-c2nc3ccc(C(=C(C#N)C#N)c4ccccc4)cc3[nH]2)cc2cc(Br)ccc21
Assayed system: LOX IMVI melanoma
Discrete label: Not fulfilled

Substance smiles: CCCCCc1ccc(S(=O)(=O)Nc2cc(-c3csc(NC(=O)CN4CCN(CCO)CC4)n3)ccc2OC)cc1
Assayed system: LOX IMVI melanoma
Discrete label: Fulfilled

Substance smiles: Nc1nc(Nc2ccccc2SSc2ccccc2Nc2nc(N)nc(-c3ccccc3)n2)nc(-c2ccccc2)n1
Assayed system: LOX IMVI melanoma
Discrete label: Fulfilled

Substance smiles: C=C(C)[C@@H]1CC[C@]2(COP(=O)(OCC)OCC)CC[C@]3(C)[C@H](CC[C@@H]4[C@@]5(C)CCCNC(C)(C)[C@@H]5CC[C@]43C)[C@@H]12
Assayed system: LOX IMVI melanoma
Discrete label: Fulfilled

Substance smiles: CS(=O)(=O)Nc1cc(-c2ccc3ncc(C#N)c(N[C@H](CO)c4ccccc4)c3c2)cnc1Cl
Assayed system: LOX IMVI melanoma
Discrete label: Not fulfilled

Substance smiles: CC1(COc2ccc3ncc(C#Cc4cncc(C(=O)Nc5cccc(C(F)(F)F)c5)c4)n3n2)COC1
Assayed system: LOX IMVI melanoma
Discrete label: Not fulfilled
